Readings of PBM E-score for the listed sequences
# Measured On: Vhr1 (UniProt P40522)
# Sequence: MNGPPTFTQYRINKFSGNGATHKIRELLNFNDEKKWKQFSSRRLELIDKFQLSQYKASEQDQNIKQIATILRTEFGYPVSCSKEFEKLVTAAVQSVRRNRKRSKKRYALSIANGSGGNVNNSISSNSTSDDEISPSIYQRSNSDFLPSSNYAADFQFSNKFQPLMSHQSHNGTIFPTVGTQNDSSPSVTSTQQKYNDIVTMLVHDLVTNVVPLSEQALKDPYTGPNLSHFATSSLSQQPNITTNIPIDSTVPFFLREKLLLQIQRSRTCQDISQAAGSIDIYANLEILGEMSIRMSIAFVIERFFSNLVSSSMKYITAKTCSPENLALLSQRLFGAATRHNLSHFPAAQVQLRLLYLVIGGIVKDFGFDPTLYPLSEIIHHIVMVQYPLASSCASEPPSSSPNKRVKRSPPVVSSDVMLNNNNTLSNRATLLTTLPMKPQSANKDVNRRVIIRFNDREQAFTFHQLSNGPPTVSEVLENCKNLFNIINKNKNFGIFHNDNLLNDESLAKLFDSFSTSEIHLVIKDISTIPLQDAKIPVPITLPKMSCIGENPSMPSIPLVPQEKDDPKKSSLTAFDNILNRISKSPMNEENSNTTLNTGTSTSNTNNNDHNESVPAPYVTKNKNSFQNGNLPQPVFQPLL
# Experiment Notes: PBM E-score (8-mer binding enrichment) (E-score (-0.5 to 0.5)); higher = stronger / more preferred TF binding
# Applied Conditions: protein concentration: 200 nM; construct: GST-full length
Over roughly 33,000 sequences, “E-score (-0.5 to 0.5)” has its median near -0.012; the highest 2% begin near 0.27. The sample holds the highest values, similar sequences and a random draw of the others, so the mix is not that of the screen.

Residue Codes: GCAATCAC
Measured On: Vhr1 (UniProt P40522)
PBM E-score: 0.159
//
Residue Codes: CTATATCC
Measured On: Vhr1 (UniProt P40522)
PBM E-score: -0.00727
//
Residue Codes: AACATCGG
Measured On: Vhr1 (UniProt P40522)
PBM E-score: 0.0341
//
Residue Codes: ATCCTACC
Measured On: Vhr1 (UniProt P40522)
PBM E-score: 0.0595
//
Residue Codes: CGCCCTCA
Measured On: Vhr1 (UniProt P40522)
PBM E-score: -0.16
//
Residue Codes: CTACTCAG
Measured On: Vhr1 (UniProt P40522)
PBM E-score: 0.153
//
Residue Codes: TCGAGTCA
Measured On: Vhr1 (UniProt P40522)
PBM E-score: 0.399
//
Residue Codes: AATTGGCT
Measured On: Vhr1 (UniProt P40522)
PBM E-score: -0.0912
//
Residue Codes: CGGTAGAC
Measured On: Vhr1 (UniProt P40522)
PBM E-score: -0.00049
//
Residue Codes: ACCCCAAG
Measured On: Vhr1 (UniProt P40522)
PBM E-score: -0.0964
//
Residue Codes: TCGAGTAA
Measured On: Vhr1 (UniProt P40522)
PBM E-score: 0.0538
//
Residue Codes: GAAGATAC
Measured On: Vhr1 (UniProt P40522)
PBM E-score: 0.00993
//
Residue Codes: TAAAGGCA
Measured On: Vhr1 (UniProt P40522)
PBM E-score: -0.226
//
Residue Codes: CTAATGAA
Measured On: Vhr1 (UniProt P40522)
PBM E-score: 0.0817
//
Residue Codes: TCATGAGA
Measured On: Vhr1 (UniProt P40522)
PBM E-score: 0.101
//
Residue Codes: CAGTCAGG
Measured On: Vhr1 (UniProt P40522)
PBM E-score: 0.175
//
Residue Codes: ACCGTTCA
Measured On: Vhr1 (UniProt P40522)
PBM E-score: -0.0238
//
Residue Codes: AGTGTGAC
Measured On: Vhr1 (UniProt P40522)
PBM E-score: 0.209
//
Residue Codes: ACGAGTCA
Measured On: Vhr1 (UniProt P40522)
PBM E-score: 0.43
//
Residue Codes: CGCTCACA
Measured On: Vhr1 (UniProt P40522)
PBM E-score: 0.137
//
Residue Codes: CTTTAACC
Measured On: Vhr1 (UniProt P40522)
PBM E-score: -0.127
//
Residue Codes: AATAGGGC
Measured On: Vhr1 (UniProt P40522)
PBM E-score: -0.124
//
Residue Codes: ACGAGTTG
Measured On: Vhr1 (UniProt P40522)
PBM E-score: 0.0198
//
Residue Codes: ACATATCG
Measured On: Vhr1 (UniProt P40522)
PBM E-score: 0.191
//
Residue Codes: AAGTCAAT
Measured On: Vhr1 (UniProt P40522)
PBM E-score: 0.0223
//
Residue Codes: ATAATCAT
Measured On: Vhr1 (UniProt P40522)
PBM E-score: 0.389
//
Residue Codes: ATACTGAG
Measured On: Vhr1 (UniProt P40522)
PBM E-score: 0.302
//
Residue Codes: AGGAGACG
Measured On: Vhr1 (UniProt P40522)
PBM E-score: -0.176
//
Residue Codes: ACATTTAT
Measured On: Vhr1 (UniProt P40522)
PBM E-score: -0.0139
//
Residue Codes: GTTTGAAA
Measured On: Vhr1 (UniProt P40522)
PBM E-score: -0.0935
//
Residue Codes: CGAGCTCG
Measured On: Vhr1 (UniProt P40522)
PBM E-score: 0.307
//
Residue Codes: ACTAGAGT
Measured On: Vhr1 (UniProt P40522)
PBM E-score: 0.0036
//
Residue Codes: ACCATAGT
Measured On: Vhr1 (UniProt P40522)
PBM E-score: 0.0959
//
Residue Codes: GCAATCGA
Measured On: Vhr1 (UniProt P40522)
PBM E-score: -0.0515
//
Residue Codes: GTTCACTA
Measured On: Vhr1 (UniProt P40522)
PBM E-score: -0.133
//
Residue Codes: CACGGTGC
Measured On: Vhr1 (UniProt P40522)
PBM E-score: 0.0709
//
Residue Codes: CAATCTAA
Measured On: Vhr1 (UniProt P40522)
PBM E-score: -0.13
//
Residue Codes: ACATGAGC
Measured On: Vhr1 (UniProt P40522)
PBM E-score: 0.0844
//
Residue Codes: ATATATCA
Measured On: Vhr1 (UniProt P40522)
PBM E-score: 0.0989
//
Residue Codes: TCGAGCCA
Measured On: Vhr1 (UniProt P40522)
PBM E-score: -0.0584
//
Residue Codes: CACACCTC
Measured On: Vhr1 (UniProt P40522)
PBM E-score: 0.285
//
Residue Codes: AGATGACA
Measured On: Vhr1 (UniProt P40522)
PBM E-score: 0.0194
//
Residue Codes: ATATATAA
Measured On: Vhr1 (UniProt P40522)
PBM E-score: 0.247
//
Residue Codes: CGAGCTCC
Measured On: Vhr1 (UniProt P40522)
PBM E-score: -0.102
//
Residue Codes: GTAGGTAA
Measured On: Vhr1 (UniProt P40522)
PBM E-score: -0.114
//
Residue Codes: CTCATCAC
Measured On: Vhr1 (UniProt P40522)
PBM E-score: 0.0121
//
Residue Codes: CGAGCTCA
Measured On: Vhr1 (UniProt P40522)
PBM E-score: 0.144
//
Residue Codes: AACACCGA
Measured On: Vhr1 (UniProt P40522)
PBM E-score: 0.108
//
Residue Codes: ATATATAT
Measured On: Vhr1 (UniProt P40522)
PBM E-score: 0.324
//
Residue Codes: AAGAAGCT
Measured On: Vhr1 (UniProt P40522)
PBM E-score: -0.191
//
Residue Codes: ATACTCAA
Measured On: Vhr1 (UniProt P40522)
PBM E-score: 0.178
//
Residue Codes: ATATATAG
Measured On: Vhr1 (UniProt P40522)
PBM E-score: 0.132
//
Residue Codes: ATACTCAG
Measured On: Vhr1 (UniProt P40522)
PBM E-score: 0.274
//
Residue Codes: CGTACCCA
Measured On: Vhr1 (UniProt P40522)
PBM E-score: 0.16
//
Residue Codes: ACGGGAGG
Measured On: Vhr1 (UniProt P40522)
PBM E-score: -0.13
//
Residue Codes: GATGACAA
Measured On: Vhr1 (UniProt P40522)
PBM E-score: -0.00976
//
Residue Codes: CGTGTCTA
Measured On: Vhr1 (UniProt P40522)
PBM E-score: 0.124
//
Residue Codes: GAAGATCA
Measured On: Vhr1 (UniProt P40522)
PBM E-score: -0.185
//
Residue Codes: ACGAGTCG
Measured On: Vhr1 (UniProt P40522)
PBM E-score: 0.322
//
Residue Codes: ATCATCAG
Measured On: Vhr1 (UniProt P40522)
PBM E-score: 0.0874
//
Residue Codes: GAGGCAAC
Measured On: Vhr1 (UniProt P40522)
PBM E-score: -0.172
//
Residue Codes: ACTCTCAG
Measured On: Vhr1 (UniProt P40522)
PBM E-score: -0.0997
//
Residue Codes: GATGACTA
Measured On: Vhr1 (UniProt P40522)
PBM E-score: 0.447
//
Residue Codes: TGATGGAA
Measured On: Vhr1 (UniProt P40522)
PBM E-score: 0.0625
//
Residue Codes: ATAAGAAG
Measured On: Vhr1 (UniProt P40522)
PBM E-score: -0.11
//
Residue Codes: CATCAACG
Measured On: Vhr1 (UniProt P40522)
PBM E-score: 0.131
//
Residue Codes: ATGTCATA
Measured On: Vhr1 (UniProt P40522)
PBM E-score: 0.106
//
Residue Codes: CCAAGTCG
Measured On: Vhr1 (UniProt P40522)
PBM E-score: 0.00863
//
Residue Codes: AATGACTC
Measured On: Vhr1 (UniProt P40522)
PBM E-score: 0.463
//
Residue Codes: CCGAGTAG
Measured On: Vhr1 (UniProt P40522)
PBM E-score: 0.1
//
Residue Codes: CTAATCAC
Measured On: Vhr1 (UniProt P40522)
PBM E-score: 0.27
//
Residue Codes: AGATGACC
Measured On: Vhr1 (UniProt P40522)
PBM E-score: -0.0573
//
Residue Codes: CACTAATC
Measured On: Vhr1 (UniProt P40522)
PBM E-score: 0.19
//
Residue Codes: ATACTCAC
Measured On: Vhr1 (UniProt P40522)
PBM E-score: 0.17
//
Residue Codes: ATAATCAG
Measured On: Vhr1 (UniProt P40522)
PBM E-score: 0.0967
//
Residue Codes: AGTGTGAG
Measured On: Vhr1 (UniProt P40522)
PBM E-score: 0.147
//
Residue Codes: ACATGAGA
Measured On: Vhr1 (UniProt P40522)
PBM E-score: 0.273
//
Residue Codes: CATGACGA
Measured On: Vhr1 (UniProt P40522)
PBM E-score: 0.22
//
Residue Codes: ATAATCAA
Measured On: Vhr1 (UniProt P40522)
PBM E-score: 0.0618
//
Residue Codes: AGGTCATA
Measured On: Vhr1 (UniProt P40522)
PBM E-score: 0.0299
//
Residue Codes: ACATGACT
Measured On: Vhr1 (UniProt P40522)
PBM E-score: 0.446

These measurements were taken from the supplement of paper PMC3334620.
